- Test system: Staphylococcus aureus MW2 delta-mecA (mecA-)
- experimentSummary: normalized GFP fluorescence (growth of mecA- strain) (fraction of control range); higher = more growth of mecA- strain
- appliedConditions: compound concentration: 150 uM; cefoxitin: subinhibitory; fluorescent label: GFP
Counter-ions that a name gives are not always drawn.
Mark 1 (yes) for reported normalized GFP fluorescence of 0.3 or greater; mark 0 (no) for anything smaller.

CCCCOc1ccc(CC(=O)NO)cc1 [Bufexamac] : 1 (yes)
COc1cc2c(cc1OC)CC(=O)N(CCCN(C)C[C@H]1Cc3cc(OC)c(OC)cc31)CC2 [Ivabradine HCl (Procoralan)] : 1 (yes)

Exercise: Please check the record CC1CCC(NC(=O)N(CCCl)N=O)CC1 (stereo not given) and state if its normalized GFP fluorescence is at or above 0.3.
Solution: 1 (yes)

Exercise: Please check the record CC(C(=O)O)c1ccc(-c2ccccc2)c(F)c1 (stereo not given) and state if its normalized GFP fluorescence is at or above 0.3.
Solution: 0 (no)

Exercise: Please check the record OCCOCCN1CCN(C(c2ccccc2)c2ccc(Cl)cc2)CC1 (stereo not given) and state if its normalized GFP fluorescence is at or above 0.3.
Solution: 0 (no)

Exercise: Please check the record C=CC[C@@H]1/C=C(\C)C[C@H](C)C[C@H](OC)[C@H]2O[C@@](O)(C(=O)C(=O)N3CCCC[C@H]3C(=O)O[C@H](/C(C)=C/[C@@H]3CC[C@@H](O)[C@H](OC)C3)[C@H](C)[C@@H](O)CC1=O)[C@H](C)C[C@@H]2OC and state if its normalized GFP fluorescence is at or above 0.3.
Solution: 0 (no)

Exercise: Please check the record CN1C(C(=O)Nc2ccccn2)=C(O)c2sc(Cl)cc2S1(=O)=O and state if its normalized GFP fluorescence is at or above 0.3.
Solution: 0 (no)

Exercise: Please check the record CC(=O)Nc1c(I)c(NC(C)=O)c(I)c(C(=O)O)c1I and state if its normalized GFP fluorescence is at or above 0.3.
Solution: 1 (yes)

Exercise: Please check the record Oc1ccc(OCc2ccccc2)cc1 and state if its normalized GFP fluorescence is at or above 0.3.
Solution: 0 (no)

Exercise: Please check the record CCCCCNC(=N)N/N=C/c1c[nH]c2ccc(OC)cc12 and state if its normalized GFP fluorescence is at or above 0.3.
Solution: 0 (no)

Exercise: Please check the record CCN(CC)C(=O)c1cccc(C)c1 and state if its normalized GFP fluorescence is at or above 0.3.
Solution: 1 (yes)
